target.under.test: human mGlu 5a receptor (Homo sapiens)
Construct: expressed in transfected cells; host or cells: EBNA cells (transient transfection); cell membrane homogenates
Sequence (P41594 21-1180 isoform P41594-2 limits assumed): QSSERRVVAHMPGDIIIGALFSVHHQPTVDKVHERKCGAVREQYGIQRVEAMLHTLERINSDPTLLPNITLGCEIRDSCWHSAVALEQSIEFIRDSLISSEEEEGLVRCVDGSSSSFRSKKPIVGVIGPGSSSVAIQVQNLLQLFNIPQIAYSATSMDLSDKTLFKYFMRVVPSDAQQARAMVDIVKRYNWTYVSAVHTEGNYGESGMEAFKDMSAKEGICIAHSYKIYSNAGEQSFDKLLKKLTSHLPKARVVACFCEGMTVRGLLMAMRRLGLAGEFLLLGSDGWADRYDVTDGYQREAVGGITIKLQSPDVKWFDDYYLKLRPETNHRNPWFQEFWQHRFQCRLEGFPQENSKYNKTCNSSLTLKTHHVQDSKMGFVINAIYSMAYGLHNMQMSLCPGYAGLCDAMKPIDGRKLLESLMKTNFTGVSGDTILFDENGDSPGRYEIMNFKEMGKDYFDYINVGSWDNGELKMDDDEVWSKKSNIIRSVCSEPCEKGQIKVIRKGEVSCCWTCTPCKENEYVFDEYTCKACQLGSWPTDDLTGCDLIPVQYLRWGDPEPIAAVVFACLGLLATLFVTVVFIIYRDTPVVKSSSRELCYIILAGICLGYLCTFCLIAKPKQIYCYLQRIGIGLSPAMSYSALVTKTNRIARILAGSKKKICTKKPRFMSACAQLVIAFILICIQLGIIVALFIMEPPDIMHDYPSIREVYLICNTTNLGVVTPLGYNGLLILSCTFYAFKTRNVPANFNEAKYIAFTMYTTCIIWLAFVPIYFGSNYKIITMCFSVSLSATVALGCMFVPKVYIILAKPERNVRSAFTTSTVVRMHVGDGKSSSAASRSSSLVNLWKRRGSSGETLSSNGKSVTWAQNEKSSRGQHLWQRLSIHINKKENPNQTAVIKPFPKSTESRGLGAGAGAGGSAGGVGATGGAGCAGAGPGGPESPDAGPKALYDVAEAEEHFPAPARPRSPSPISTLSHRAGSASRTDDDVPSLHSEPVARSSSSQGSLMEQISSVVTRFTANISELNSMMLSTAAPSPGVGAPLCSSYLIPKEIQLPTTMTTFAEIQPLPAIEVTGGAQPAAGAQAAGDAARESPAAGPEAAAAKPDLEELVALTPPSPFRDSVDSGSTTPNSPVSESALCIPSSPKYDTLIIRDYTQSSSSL
assay: [3H]MPEP competition binding on membranes of EBNA cells transiently transfected with human mGlu 5a receptor
settings: displacement of [3H]MPEP (2 nM), 1 h at 4° C.
Experimental: The pharmacological activity of the compounds was tested using the following method: For binding experiments, cDNA encoding human mGlu 5a receptor was transiently transfected into EBNA cells using a procedure described by Schlaeger and Christensen [Cytotechnology 15:1-13 (1998)]. […] Saturation isotherms were determined by addition of twelve [^3H]MPEP concentrations (0.04-100 nM) to these membranes (in a total volume of 200 μl) for 1 h at 4° C. […]
pKi: −log10 of the molar value.
measurement.type: pKi

> print(dat)
                                   compound  reported.result
1  Cn1ccc(NC(=O)c2nccnc2Nc2cncc(F)c2)n1 [Example 3]             7.15

[1] O=C(Nc1cccc(Cl)c1)c1nccnc1Nc1ccccc1 [Example 2]
[2] Cc1cc(NC(=O)c2nccnc2Nc2ccccc2)ccn1 [Example 4]
(Q) Of the two listed items, 1 and 2 , which carries the larger pKi figure? Selection: enter the item's label.
(A) 1
(1: 7.02, 2: 6.12)
